biological target: Histamine H1 receptor (Cavia porcellus); test: Inhibition of H1 receptor in Cavia porcellus Hartley (guinea pig) ileum assessed as inhibition of histamine-induced spasms incubated at 10 '-3 M 2 min prior histamine-challenge; assay type: tissue-based
Measurement Type: inhibition (%)
The response must be a number in % with no trailing unit.

Q: Look up inhibition: "CC(C)(CO)N1C(=O)c2ccccc2C1=O"
Ans: 0

Q: Record request: inhibition value, item "Cc1ccc(/C(=C\CN2CCCC2)c2cccc(/C=C/C(=O)O)n2)cc1"
Ans: 100

Q: Using the record for "CC(CO)(CO)Nc1nc2ccccc2[nH]1" , report its inhibition.
Ans: 69

Q: Which inhibition value is on record for "CCOC(=O)N1CCN(C=C2C(=O)NC(=O)NC2=O)CC1" ?
Ans: 25

Q: Using the record for "CC(CO)(CO)NCCCN1C(=O)c2ccccc2C1=O" , report its inhibition.
Ans: 69.2

Q: Requested field: inhibition. Item: "O=C1NC(=O)C(=CN2CCOCC2)C(=O)N1"
Ans: 100
